Exercise: state measured MIC for each of the molecules provided.
Test system: Trichophyton benhamiae
method_summary: Antifungal activity against Trichophyton mentagrophytes
Assay type: functional, trychophyton mentagrophytes
Report as a plain number; the unit µg/mL is understood.

For this molecule ( Fc1ccc(-c2nnc3ccncc3n2)cc1F ), measured MIC is 4

For this molecule ( c1ccc2c(c1)ncc1nc(-c3ccncc3)nnc12 ), measured MIC is 64

For this molecule ( Fc1ccc(-c2nnc3ncccc3n2)cc1 ), measured MIC is 32

For this molecule ( c1ccc(-c2nnc3ccncc3n2)cc1 ), measured MIC is 8

For this molecule ( c1ccc(-c2nnc3ccncc3n2)nc1 ), measured MIC is 32

For this molecule ( Cc1cc2nnc(-c3ccc(F)cc3)nc2c(C)n1 ), measured MIC is 64

For this molecule ( Cc1nnc2ncccc2n1 ), measured MIC is 128

---

Test system: Aspergillus niger
method_summary: Antifungal activity against Aspergillus niger; Range is 32-64
Format: functional
Exercise: state measured MIC for each of the molecules provided.
Report as a plain number; the unit µg/mL is understood.

For this molecule ( Fc1ccc(-c2nnc3ccncc3n2)cc1F ), measured MIC is 32

For this molecule ( CC1N=Nc2ncccc2N1 (configuration not stated) ), measured MIC is 32

For this molecule ( c1cnc(-c2nnc3ccncc3n2)cn1 ), measured MIC is 32

For this molecule ( Cc1nnc2ncccc2n1 ), measured MIC is 32

For this molecule ( Cc1nccc2nnc(-c3ccncc3)nc12 ), measured MIC is 32

For this molecule ( CCCc1nnc2ccncc2n1 ), measured MIC is 32

For this molecule ( c1cc2nnc(C3CCCCC3)nc2cn1 ), measured MIC is 32

---

System: Trichophyton rubrum
method_summary: Antifungal activity against Trichophyton rubrum
Format: functional
Rule: MIC below 30 µg/mL gives criterion met. Equal to or above 30 µg/mL gives criterion not met.

Query block: Dear reviewer, please state whether Cc1cc2nnc(-c3ccc(F)cc3)nc2c(C)n1 has MIC strictly beneath 30 µg/mL.
Result block: criterion not met

Query block: Dear reviewer, please state whether c1ccc(-c2nnc3ccccc3n2)cc1 has MIC strictly beneath 30 µg/mL.
Result block: criterion not met

Query block: Dear reviewer, please state whether Cc1nccc2nncnc12 has MIC strictly beneath 30 µg/mL.
Result block: criterion met

Query block: Dear reviewer, please state whether Fc1ccc(-c2nnc3ncccc3n2)cc1 has MIC strictly beneath 30 µg/mL.
Result block: criterion not met

Query block: Dear reviewer, please state whether C[C@@H]1[C@H](O)[C@@H](C)/C=C/C=C/C=C/C=C/C=C/C=C/C=C/[C@H](O[C@@H]2O[C@H](C)[C@@H](O)[C@H](N)[C@@H]2O)C[C@@H]2O[C@](O)(C[C@@H](O)C[C@@H](O)[C@H](O)CC[C@@H](O)C[C@@H](O)CC(=O)O[C@H]1C)C[C@H](O)[C@H]2C(=O)O has MIC strictly beneath 30 µg/mL.
Result block: criterion met

Query block: Dear reviewer, please state whether CC1(C)N=Nc2ccncc2N1 has MIC strictly beneath 30 µg/mL.
Result block: criterion not met

Query block: Dear reviewer, please state whether CCC1(Cc2ccccc2)N=Nc2ccncc2N1 (centres undefined) has MIC strictly beneath 30 µg/mL.
Result block: criterion not met

Query block: Dear reviewer, please state whether c1ccc2c(c1)ncc1nc(-c3ccncc3)nnc12 has MIC strictly beneath 30 µg/mL.
Result block: criterion not met

Query block: Dear reviewer, please state whether c1cnc2nncnc2c1 has MIC strictly beneath 30 µg/mL.
Result block: criterion not met

Query block: Dear reviewer, please state whether Cc1cc2nncnc2c(C)n1 has MIC strictly beneath 30 µg/mL.
Result block: criterion met

Query block: Dear reviewer, please state whether Cc1nnc2c(cnc3ccccc32)n1 has MIC strictly beneath 30 µg/mL.
Result block: criterion not met

Query block: Dear reviewer, please state whether Cc1nc(C)c2nc(-c3ccc(F)cc3)nnc2c1N has MIC strictly beneath 30 µg/mL.
Result block: criterion not met

Query block: Dear reviewer, please state whether c1ccc2c3c(cnc2c1)NC1(CCCCC1)N=N3 has MIC strictly beneath 30 µg/mL.
Result block: criterion not met

Query block: Dear reviewer, please state whether Cc1nc(C)c2nc(-c3ccncc3)nnc2c1N has MIC strictly beneath 30 µg/mL.
Result block: criterion met

Query block: Dear reviewer, please state whether Cc1nnc2ncccc2n1 has MIC strictly beneath 30 µg/mL.
Result block: criterion not met

Query block: Dear reviewer, please state whether Cc1nnc2ccnc(C)c2n1 has MIC strictly beneath 30 µg/mL.
Result block: criterion met

Query block: Dear reviewer, please state whether Clc1ccc(COC(Cn2ccnc2)c2ccc(Cl)cc2Cl)c(Cl)c1 (centres undefined) has MIC strictly beneath 30 µg/mL.
Result block: criterion met

Query block: Dear reviewer, please state whether Fc1ccc(-c2nnc3ccncc3n2)c(F)c1 has MIC strictly beneath 30 µg/mL.
Result block: criterion met

Query block: Dear reviewer, please state whether Fc1ccc(-c2nnc3ccncc3n2)cc1 has MIC strictly beneath 30 µg/mL.
Result block: criterion met

---

Test system: Trichophyton benhamiae
method_summary: Antifungal activity against Trichophyton mentagrophytes
Format: functional, trychophyton mentagrophytes
Exercise: state measured MIC for each of the molecules provided.
Report as a plain number; the unit µg/mL is understood.

Measured MIC (Trichophyton benhamiae), entry Fc1ccccc1-c1nnc2ccncc2n1 : 8

Measured MIC (Trichophyton benhamiae), entry Cc1nc(C)c2nc(-c3ccncc3)nnc2c1N : 32

Measured MIC (Trichophyton benhamiae), entry c1cncc(-c2nnc3ccncc3n2)c1 : 4

Measured MIC (Trichophyton benhamiae), entry Cc1nc(C)c2nc(-c3ccc(F)cc3)nnc2c1N : 128

Measured MIC (Trichophyton benhamiae), entry Fc1cccc(-c2nnc3ccncc3n2)c1 : 4

Measured MIC (Trichophyton benhamiae), entry C[C@@H]1[C@H](O)[C@@H](C)/C=C/C=C/C=C/C=C/C=C/C=C/C=C/[C@H](O[C@@H]2O[C@H](C)[C@@H](O)[C@H](N)[C@@H]2O)C[C@@H]2O[C@](O)(C[C@@H](O)C[C@@H](O)[C@H](O)CC[C@@H](O)C[C@@H](O)CC(=O)O[C@H]1C)C[C@H](O)[C@H]2C(=O)O : 1

Measured MIC (Trichophyton benhamiae), entry c1ccc2c(c1)ncc1ncnnc12 : 4

---

System: Trichophyton benhamiae
method_summary: Antifungal activity against Trichophyton mentagrophytes
Format: functional, trychophyton mentagrophytes
attribute_measured: MIC (µg/mL)
Report as a plain number; the unit µg/mL is understood.

For this molecule ( c1cc2nnc(C3CCCCC3)nc2cn1 ), measured MIC is 16

For this molecule ( Fc1ccc(-c2nnc3ccncc3n2)c(F)c1 ), measured MIC is 8

For this molecule ( CCCc1nnc2ccncc2n1 ), measured MIC is 32

For this molecule ( C(=C\N1CCCCC1)/c1nnc2ccncc2n1 ), measured MIC is 16

For this molecule ( c1cc(-c2nnc3ccncc3n2)ccn1 ), measured MIC is 4

For this molecule ( CC1(C)N=Nc2ccncc2N1 ), measured MIC is 128

For this molecule ( Clc1ccc(COC(Cn2ccnc2)c2ccc(Cl)cc2Cl)c(Cl)c1 (centres undefined) ), measured MIC is 2

For this molecule ( c1ccc2c3c(cnc2c1)NC1(CCCCC1)N=N3 ), measured MIC is 64

For this molecule ( c1cnc2nncnc2c1 ), measured MIC is 32

For this molecule ( Cc1nnc2c(cnc3ccccc32)n1 ), measured MIC is 32

For this molecule ( Cc1nnc2ccncc2n1 ), measured MIC is 16

For this molecule ( FC(F)(F)c1ccc(-c2nnc3ccncc3n2)cc1 ), measured MIC is 64

For this molecule ( CN(C)c1ccc(-c2nnc3ccncc3n2)cc1 ), measured MIC is 8

For this molecule ( Cc1nnc2ccnc(C)c2n1 ), measured MIC is 8

---

Tested on: Candida tropicalis
method_summary: Antifungal activity against Candida tropicalis
Type: functional
attribute_measured: MIC (µg/mL)
Report as a plain number; the unit µg/mL is understood.

For this compound ( Fc1ccc(-c2nnc3ncccc3n2)cc1 ), measured MIC is 128

For this compound ( CC1(C)N=Nc2c(cnc3ccccc23)N1 ), measured MIC is 128

For this compound ( CN1CCN(/C=C/c2nnc3ccncc3n2)CC1 ), measured MIC is 128

For this compound ( Cc1nnc2ncccc2n1 ), measured MIC is 128

For this compound ( CC1(C)N=Nc2ccncc2N1 ), measured MIC is 128

For this compound ( c1cc2nnc(C3CC3)nc2cn1 ), measured MIC is 32

For this compound ( CCOc1ccc(-c2nnc3ccncc3n2)cc1 ), measured MIC is 64

For this compound ( c1ccc(-c2ccc(-c3nnc4ccncc4n3)cc2)cc1 ), measured MIC is 128

For this compound ( Fc1ccccc1-c1nnc2ccncc2n1 ), measured MIC is 32

For this compound ( c1ccc2nc(-c3nnc4ccncc4n3)cnc2c1 ), measured MIC is 8

For this compound ( Cc1cc2nnc(C)nc2c(C)n1 ), measured MIC is 32

For this compound ( c1ccc(OCc2nnc3ccncc3n2)cc1 ), measured MIC is 16

For this compound ( CN(C)/C=C/c1nnc2ccncc2n1 ), measured MIC is 128

For this compound ( c1cc2c(cn1)NC1(CCCCC1)N=N2 ), measured MIC is 128

For this compound ( c1ccc(-c2nnc3ccccc3n2)cc1 ), measured MIC is 128

For this compound ( CC(C)(C)c1nnc2ccncc2n1 ), measured MIC is 64

For this compound ( CC1N=Nc2ncccc2N1 (stereo not drawn) ), measured MIC is 64

For this compound ( Cc1nnc2ccncc2n1 ), measured MIC is 8

For this compound ( c1cc2nnc(C3CCC3)nc2cn1 ), measured MIC is 32

For this compound ( Fc1ccc(-c2nnc3ccncc3n2)c(F)c1 ), measured MIC is 16

For this compound ( C(=C\N1CCCCC1)/c1nnc2ccncc2n1 ), measured MIC is 128

For this compound ( FC(F)(F)c1nnc2ccncc2n1 ), measured MIC is 32

For this compound ( CCCCCCCCCCCCCCCCCc1nnc2ccncc2n1 ), measured MIC is 128

For this compound ( Cc1cc2nnc(-c3ccc(F)cc3)nc2c(C)n1 ), measured MIC is 128

For this compound ( c1cnc2nncnc2c1 ), measured MIC is 64

For this compound ( Cc1nnc2c(N)c(C)nc(C)c2n1 ), measured MIC is 128

For this compound ( c1cnc(-c2nnc3ccncc3n2)cn1 ), measured MIC is 64

For this compound ( c1ccc2cc(-c3nnc4ccncc4n3)ccc2c1 ), measured MIC is 128

For this compound ( CC(=O)Nc1c(C)nc(C)c2nc(-c3ccc(F)cc3)nnc12 ), measured MIC is 128

For this compound ( Cc1cc2nnc(-c3ccncc3)nc2c(C)n1 ), measured MIC is 128

For this compound ( Cc1nnc2c(cnc3ccccc32)n1 ), measured MIC is 32

For this compound ( c1ccc2c(c1)ncc1ncnnc12 ), measured MIC is 16

For this compound ( CN(C)c1ccc(-c2nnc3ccncc3n2)cc1 ), measured MIC is 64

For this compound ( c1ccc2c3c(cnc2c1)NC1(CCCCC1)N=N3 ), measured MIC is 128

For this compound ( c1ccc(-c2nnc3ccncc3n2)nc1 ), measured MIC is 64

For this compound ( Cc1nc(C)c2nc(-c3ccc(F)cc3)nnc2c1NC(=O)c1ccccc1 ), measured MIC is 128

For this compound ( CC(C)(C)c1ccc(-c2nnc3ccncc3n2)cc1 ), measured MIC is 128

For this compound ( c1cc2nnc(C3CCCC3)nc2cn1 ), measured MIC is 64

For this compound ( c1ccc2c(c1)ncc1nc(-c3ccncc3)nnc12 ), measured MIC is 128

For this compound ( FC(F)(F)c1ccc(-c2nnc3ccncc3n2)cc1 ), measured MIC is 128

For this compound ( Cc1nc(C)c2nc(-c3ccncc3)nnc2c1N ), measured MIC is 128

For this compound ( COc1cc(-c2nnc3ccncc3n2)cc(OC)c1OC ), measured MIC is 128
